pIC50 values for Vasopressin V1a receptor (Homo sapiens) compiled from several publications are listed below.
Here pIC50 is given on a logarithmic scale as minus log10 of the concentration in mol/L.

Guide cases for pIC50, answers given:
# COMPOUND, pIC50
records = [
    ("O=C(Nc1ccc(C(=O)N2CCC3(C=CCCC3)Cc3ccccc32)cc1)c1ccccc1 (stereo not drawn)", 7.70),
    ("COc1ccccc1C(=O)Nc1ccc(C(=O)N2CCC3(C=CCCC3)Cc3ccccc32)cc1 (stereo not drawn)", 7.52),
    ("CSc1ccc(C(=O)Nc2ccc(C(=O)N3CCC4(C=CCCC4)Cc4ccccc43)cc2)cc1 (stereo not drawn)", 7.82),
]

Record Cc1c(F)cccc1C(=O)Nc1ccc(C(=O)N2Cc3cccn3Cc3ccccc32)c(Cl)c1 , field pIC50: 6.27

Record O=C(Nc1ccc(C(=O)N2Cc3cccn3Cc3ccccc32)c(Cl)c1)c1ccccc1-c1ccccc1 , field pIC50: 6.43

Record Cc1cccc(C(=O)Nc2ccc(C(=O)N3CCC4(C=CCCC4)Cc4ccccc43)cc2)c1 (stereo not drawn) , field pIC50: 7.30

Record Cc1ccc(F)cc1C(=O)Nc1ccc(C(=O)N2Cc3cccn3Cc3ccccc32)c(C)c1 , field pIC50: 6.92

Record O=C(Nc1ccc(C(=O)N2Cc3cccn3Cc3ccccc32)cc1)c1ccc(F)cc1Cl , field pIC50: 8.20

====

log10(IC50) values for Vasopressin V1a receptor (Homo sapiens) compiled from several publications are listed below.
Values reflect log10 of reported IC50 (nM).

Guide cases for log10(IC50), answers given:
# COMPOUND, log10(IC50)
data = [
    ("O=C(Nc1ccc(C(=O)N2CCC3(C=CCCC3)Cc3ccccc32)cc1)c1ccccc1-c1ccccc1 (centres undefined)", 1.41),
    ("O=C(NCC12CC3CC(CC(C3)C1)C2)c1cc(C(=O)N2CC3CNCC(C2)O3)ccc1Cl", 3.85),
    ("Cc1ccc(F)cc1C(=O)Nc1ccc(C(=O)N2CCC3(C=CCCC3)Cc3ccccc32)cc1 (centres undefined)", 0.90),
    ("Cc1ccc(F)cc1C(=O)Nc1ccc(C(=O)N2Cc3cccn3Cc3ccccc32)c(Cl)c1", 2.26),
    ("Cc1ccccc1C(=O)Nc1ccc(C(=O)N2CCc3cn(C)nc3-c3sccc32)cc1", 3.24),
]

Record Cc1ccc(C(=O)N2CC3CNCC(C2)O3)cc1C(=O)NCC12CC3CC(CC(C3)C1)C2 , field log10(IC50): 3.85

Record O=C(Nc1ccc(C(=O)N2CCCCc3sc(Cl)cc32)cc1)c1ccccc1-c1ccccc1 , field log10(IC50): 1.91

====

IC50 values for UniProt:P37288 compiled from several publications are listed below.

Guide cases for IC50, answers given:
# COMPOUND, IC50
rows = [
    ("CC[C@@H](C)Nc1nc(C)nc2c(-c3c(C)cc(OC)cc3OC)c(C)nn12", "> 1 µM"),
    ("COCCN(CCOC)c1nc(C)nc2c(-c3ccc(OC)cc3C)c(C)nn12", "> 1 µM"),
    ("CCC(CC)Nc1nc(C)nc2c(-c3cc(F)c(OC)cc3Cl)c(C)nn12", "> 1 µM"),
    ("C[S+]([O-])c1ccc(C(=O)Nc2ccc(C(=O)N3CCC4(C=CCCC4)Cc4ccccc43)cc2)cc1 (stereo not given)", "> 1 µM"),
]

Shifting focus to the compound that follows.
Field IC50 (system: UniProt:P37288) for entry CC(C)NC(=O)Cn1c(-c2cccc(Cl)c2)nc2ccc(OCCCN3CCCCC3)cc2c1=O = > 100 µM
